sequences and their reported shrunken log2 fold change
tested on: Escherichia coli TOP10; assay: shrunken log2 fold change of peptide-encoding DNA abundance (4.5 h post-induction vs induction); higher = less antimicrobial activity (less host growth inhibition); conditions: time post-induction: 4.5 h; library: site-saturation at positions 5, 18, 19, 20
Give a plain numeric answer without units written out.

The following sequences have reported results that may help.
>  <input-sequence>
RRIRHRPPRLPRPRPRPWHAPRP

>  <shrunken log2 fold change>
-0.0793

$$$$
>  <input-sequence>
RRIRCRPPRLPRPRPRPWVYPRP

>  <shrunken log2 fold change>
-0.0957

$$$$
>  <input-sequence>
RRIRFRPPRLPRPRPRPYIHPRP

>  <shrunken log2 fold change>
-0.932

$$$$
>  <input-sequence>
RRIRTRPPRLPRPRPRPLWPPRP

>  <shrunken log2 fold change>
0.216

$$$$
>  <input-sequence>
RRIRMRPPRLPRPRPRPMNVPRP

>  <shrunken log2 fold change>
-0.147

$$$$

Answer with reported shrunken log2 fold change of `RRIRKRPPRLPRPRPRPYKDPRP`
-0.213

Entry `RRIRRRPPRLPRPRPRPPFSPRP` needs its shrunken log2 fold change filled in; supply it.
0.207

Identify the reported shrunken log2 fold change for the following entry. `RRIRDRPPRLPRPRPRPTCIPRP`
0.0607

Respond only with shrunken log2 fold change recorded for `RRIRMRPPRLPRPRPRPLRHPRP`
1.98

Return shrunken log2 fold change for the following sequence: `RRIRLRPPRLPRPRPRPSKTPRP`
-0.258

Please report the measured shrunken log2 fold change for `RRIRTRPPRLPRPRPRPMDRPRP`
-0.01

Return shrunken log2 fold change (reported value) for this sequence: `RRIRCRPPRLPRPRPRPWVTPRP`
-0.652

Give me measured shrunken log2 fold change, please, for this sequence: `RRIRCRPPRLPRPRPRPTSQPRP`
0.00813

Provide only the value of recorded shrunken log2 fold change for `RRIRARPPRLPRPRPRPNDYPRP`
-0.471

Please give measured shrunken log2 fold change of the following entry: `RRIRERPPRLPRPRPRPCALPRP`
-0.319

====

system: Escherichia coli TOP10; assay: shrunken log2 fold change of peptide-encoding DNA abundance (4.5 h post-induction vs induction); higher = less antimicrobial activity (less host growth inhibition); settings: time post-induction: 4.5 h; library: site-saturation at positions 5, 18, 19, 20
readout: shrunken log2 fold change
// print number alone

Here's what some known entries look like.
>  <input-sequence>
RRIRDRPPRLPRPRPRPQQDPRP

>  <recorded-result>
0.0798

$$$$
>  <input-sequence>
RRIRIRPPRLPRPRPRPPCQPRP

>  <recorded-result>
0.0801

$$$$
>  <input-sequence>
RRIRFRPPRLPRPRPRPICCPRP

>  <recorded-result>
-0.134

$$$$
>  <input-sequence>
RRIRARPPRLPRPRPRPPMVPRP

>  <recorded-result>
0.0322

$$$$

Recall and state the measured shrunken log2 fold change for `RRIRGRPPRLPRPRPRPQGYPRP` .
0.045

Write down shrunken log2 fold change measured for item `RRIRSRPPRLPRPRPRPCLLPRP`
-0.284

====

test system: Escherichia coli TOP10; test: shrunken log2 fold change of peptide-encoding DNA abundance (4.5 h post-induction vs induction); higher = less antimicrobial activity (less host growth inhibition); details: time post-induction: 4.5 h; library: site-saturation at positions 5, 18, 19, 20;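 note: peptides expressed intracellularly from a pBAD plasmid library in pooled LB shake-flask culture, induced with 0.3% L-arabinose, DNA abundance read by NGS, three biological replicates, DESeq2 with apeglm shrinkage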
Class 1: shrunken log2 fold change at least -0.02. Class 0: shrunken log2 fold change below -0.02.

Solved entries (count: 5):
>  <input-sequence>
RRIRCRPPRLPRPRPRPLWLPRP

>  <qualitative-label>
0

$$$$
>  <input-sequence>
RRIRTRPPRLPRPRPRPLVCPRP

>  <qualitative-label>
1

$$$$
>  <input-sequence>
RRIRQRPPRLPRPRPRPLIRPRP

>  <qualitative-label>
0

$$$$
>  <input-sequence>
RRIRVRPPRLPRPRPRPLITPRP

>  <qualitative-label>
0

$$$$
>  <input-sequence>
RRIRMRPPRLPRPRPRPDMFPRP

>  <qualitative-label>
1

$$$$

State whether the measured shrunken log2 fold change reaches -0.02, counting equality as reaching it, for `RRIRWRPPRLPRPRPRPMAWPRP`
1

For this sequence, is measured shrunken log2 fold change -0.02 or higher? `RRIRCRPPRLPRPRPRPFIQPRP`
0

Is reported shrunken log2 fold change greater than or equal to -0.02 here: `RRIRQRPPRLPRPRPRPKLGPRP`
1
